Reference for the values: ChEMBL document CHEMBL1144182

test: Cytotoxicity against mock-infected human MT4 cells assessed as reduction in cell viability after 96 hrs by MTT assay; format: cell-based
readout-label: CC50 at 96 h (µM)
Numeric only. Scale: µM

Use the examples below as a reference point.
> print(dat)
                                   compound  readout.label  unit.string  observed.value
1  CN1CCC/C1=C\N=N\c1cc(C(F)(F)F)cc(C(F)(F)F)c1   CC50 at 96 h           µM               2
2               CN1CCC/C1=C\N=N\c1ccc(F)cc1   CC50 at 96 h           µM             100
3               C(=C\N1CCSCC1)/N=N/c1ccccc1   CC50 at 96 h           µM              19
4     CN1CCC/C1=C\N=N\c1ccc(F)c(C(F)(F)F)c1   CC50 at 96 h           µM              11

Bench note: what CC50 at 96 h did O=c1cnn([C@@H]2O[C@H](CO)[C@@H](O)[C@H]2O)c(=O)[nH]1 [6-AZAURIDINE] show?
2

Form field: reported CC50 at 96 h of C(=C\N1CCCCC1)/N=N/c1ccccc1
2

What value of CC50 at 96 h has been reported for the following compound? COc1ccc(N2CCN(/C=C/N=N/c3ccccc3)CC2)cc1
29

I'd like to know its CC50 at 96 h. The compound in question is CN1/C(=C\N=N\c2ccccc2)C(C)(C)c2ccccc21.[O-][Cl+3]([O-])([O-])O
30

Using the record for CCOC(=O)c1ccc(/N=N/C=C/N2CCCCC2)cc1 , report its CC50 at 96 h.
33
